pIC50: −log10 of the molar value.
// Acetylcholinesterase (Homo sapiens, UniProt P22303) pIC50 records
quantity_measured: pIC50

> print(dat)
                            chemical.smiles  quantity.measured  measured
1  COc1ccc(COc2nn(Cc3ccc(OC)cc3)c3ccccc23)cc1              pIC50    < 5.00
2  Brc1ccc2c(c1)c(OCc1ccc3ccccc3c1)nn2CCN1CCCCC1              pIC50    < 5.00
3  Nc1ccc2c(c1)c(OCc1ccc3ccccc3c1)nn2CCN1CCCCC1              pIC50    < 5.00

###

# measured_on: Cannabinoid receptor 1 (Homo sapiens)
# Sequence (P21554 whole entry): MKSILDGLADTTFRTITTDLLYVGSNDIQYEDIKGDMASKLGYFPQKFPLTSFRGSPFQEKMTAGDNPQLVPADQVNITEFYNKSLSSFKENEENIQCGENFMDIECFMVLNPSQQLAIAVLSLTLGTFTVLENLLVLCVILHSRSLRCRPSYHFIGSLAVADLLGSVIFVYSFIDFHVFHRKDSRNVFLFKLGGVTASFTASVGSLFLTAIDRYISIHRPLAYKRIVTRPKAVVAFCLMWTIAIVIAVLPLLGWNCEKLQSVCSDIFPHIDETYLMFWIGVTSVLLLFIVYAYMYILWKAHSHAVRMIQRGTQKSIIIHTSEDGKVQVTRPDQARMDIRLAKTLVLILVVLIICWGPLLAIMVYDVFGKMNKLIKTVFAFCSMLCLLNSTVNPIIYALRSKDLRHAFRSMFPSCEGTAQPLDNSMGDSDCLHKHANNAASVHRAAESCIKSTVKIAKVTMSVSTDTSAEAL
# assay_explanation: Displacement of [3H]-CP55940 from human CB1 receptor transfected in HEK-293EBNA cells after 90 mins by luminescence counting analysis
pKi: −log10 of the molar value.
Listing of recorded pKi by entry.
quantity_measured: pKi

> print(dat)
                            chemical.smiles                            measured.on  comparative.sign  measured
1  Nc1ccc2c(c1)c(OCc1ccc3ccccc3c1)nn2CCN1CCCCC1  Cannabinoid receptor 1 (Homo sapiens)                 <      4.40
2  c1ccc2c(COc3nn(Cc4cccc5ccccc45)c4ccccc34)cccc2c1  Cannabinoid receptor 1 (Homo sapiens)                 <      5.00
3  O=[N+]([O-])c1ccc2c(c1)c(OCC1CCCCC1)nn2Cc1ccccc1  Cannabinoid receptor 1 (Homo sapiens)                 <      4.40
4  O=[N+]([O-])c1ccc2c(c1)c(OCc1ccccc1)nn2Cc1ccccc1  Cannabinoid receptor 1 (Homo sapiens)                 =      5.92
5  CCCCCOc1nn(CCCCC)c2ccc([N+](=O)[O-])cc12  Cannabinoid receptor 1 (Homo sapiens)                 =      5.89
6  O=[N+]([O-])c1ccc2c(c1)c(OCc1ccc3ccccc3c1)nn2CCN1CCOCC1  Cannabinoid receptor 1 (Homo sapiens)                 =      5.86

###

# measured_on: Cholinesterase (Equus caballus, UniProt P81908)
# Sequence (P81908 whole entry): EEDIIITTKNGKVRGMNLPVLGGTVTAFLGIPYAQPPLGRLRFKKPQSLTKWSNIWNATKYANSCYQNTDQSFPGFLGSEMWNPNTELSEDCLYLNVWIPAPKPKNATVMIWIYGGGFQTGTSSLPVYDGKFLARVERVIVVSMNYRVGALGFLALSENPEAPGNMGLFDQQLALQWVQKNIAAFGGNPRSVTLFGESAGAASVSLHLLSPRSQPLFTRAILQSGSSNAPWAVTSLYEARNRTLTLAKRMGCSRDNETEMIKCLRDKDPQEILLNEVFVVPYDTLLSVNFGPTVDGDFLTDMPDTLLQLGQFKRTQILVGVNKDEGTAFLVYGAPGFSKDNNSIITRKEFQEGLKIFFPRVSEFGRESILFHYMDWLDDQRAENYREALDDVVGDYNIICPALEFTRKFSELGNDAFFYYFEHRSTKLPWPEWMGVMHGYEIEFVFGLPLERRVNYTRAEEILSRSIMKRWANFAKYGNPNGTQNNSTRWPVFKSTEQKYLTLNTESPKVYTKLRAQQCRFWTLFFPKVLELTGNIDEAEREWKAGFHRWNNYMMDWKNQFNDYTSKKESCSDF
# assay_explanation: Inhibition of horse serum BuChE using butyrylthiocholine as substrate by Ellman's method
pIC50: −log10 of the molar value.
Form field: pIC50 (one value per entry).
quantity_measured: pIC50

> print(dat)
                            chemical.smiles                               measured.on  comparative.sign  measured
1  O=[N+]([O-])c1ccc2c(c1)c(OCc1ccccc1)nn2Cc1ccccc1  Cholinesterase (Equus caballus, UniProt P81908)                 <      5.00
2  COc1ccc(COc2nn(CCN(C(C)C)C(C)C)c3ccccc23)cc1  Cholinesterase (Equus caballus, UniProt P81908)                 =      5.64
3     Nc1ccc2c(c1)c(OCc1ccccc1)nn2Cc1ccccc1  Cholinesterase (Equus caballus, UniProt P81908)                 <      5.00
4  c1ccc2c(COc3nn(CCN4CCCC4)c4ccccc34)cccc2c1  Cholinesterase (Equus caballus, UniProt P81908)                 =      5.17
5  O=[N+]([O-])c1ccc2c(c1)c(OCc1ccc3ccccc3c1)nn2CCN1CCCCC1  Cholinesterase (Equus caballus, UniProt P81908)                 =      5.68
